Hello, the source for this data is patent US12485092B2, in case you need it.

# protocol-summary: in vivo
# protocol-conditions: SD, rat, iv, 5 mg/kg

molecule	AUC (ng·h/mL)
COc1cccc2c1C(=O)c1c(O)c3c(c(O)c1C2=O)C[C@@](O)(C(=O)CO)C[C@@H]3O[C@H]1C[C@H](N)[C@H](O)[C@H](C)O1 [Doxorubicin solution, doxorubicin]	9820

* * *

# protocol-summary: in vivo
# protocol-conditions: SD, rat, iv, 5 mg/kg

structure	clearance [L/h/kg]
COc1cccc2c1C(=O)c1c(O)c3c(c(O)c1C2=O)C[C@@](O)(C(=O)CO)C[C@@H]3O[C@H]1C[C@H](N)[C@H](O)[C@H](C)O1	0.535
